method_notes: Toxicity in experimental animal tests
Format: in vivo
parameter: Toxicity

compound="COc1cccc2c1C(=O)c1c(O)c3c(c(O)c1C2=O)CC(O)(C(C)=O)CC3OC1CC(N)C(OC(CC(C)O)OC(C)CO)C(C)O1 (stereo not shown) [BM-A1]" value_measured="low toxicity"
compound="COc1cccc2c1C(=O)c1c(O)c3c(c(O)c1C2=O)CC(O)(C(C)=O)CC3OC1CC(N)C(OC(CC(C)O)OC(C)CO)C(C)O1 (stereo not shown) [BM-A2]" value_measured="low toxicity"
compound="COc1cccc2c1C(=O)c1c(O)c3c(c(O)c1C2=O)CC(O)(C(C)=O)CC3OC1CC(N)C(OC(CC(C)O)OC(C)C(=O)O)C(C)O1 (stereo not shown) [BM-B2]" value_measured="low toxicity"
compound="COc1cccc2c1C(=O)c1c(O)c3c(c(O)c1C2=O)CC(O)(C(C)=O)CC3OC1CC(N)C(OC(CC(C)O)OC(C)C(=O)O)C(C)O1 (stereo not shown) [BM-B1]" value_measured="low toxicity"

The measurements presented in this section are drawn from patent US4147778A.
